Reported dTm is given for each of the following molecules.
- measuredTarget: ~100 representative kinases (Homo sapiens)
- Construct: Recombinant protein kinase domains with a concentration of 2 μM
- Sequence (Q8TF76 whole entry, the tested form may be a part): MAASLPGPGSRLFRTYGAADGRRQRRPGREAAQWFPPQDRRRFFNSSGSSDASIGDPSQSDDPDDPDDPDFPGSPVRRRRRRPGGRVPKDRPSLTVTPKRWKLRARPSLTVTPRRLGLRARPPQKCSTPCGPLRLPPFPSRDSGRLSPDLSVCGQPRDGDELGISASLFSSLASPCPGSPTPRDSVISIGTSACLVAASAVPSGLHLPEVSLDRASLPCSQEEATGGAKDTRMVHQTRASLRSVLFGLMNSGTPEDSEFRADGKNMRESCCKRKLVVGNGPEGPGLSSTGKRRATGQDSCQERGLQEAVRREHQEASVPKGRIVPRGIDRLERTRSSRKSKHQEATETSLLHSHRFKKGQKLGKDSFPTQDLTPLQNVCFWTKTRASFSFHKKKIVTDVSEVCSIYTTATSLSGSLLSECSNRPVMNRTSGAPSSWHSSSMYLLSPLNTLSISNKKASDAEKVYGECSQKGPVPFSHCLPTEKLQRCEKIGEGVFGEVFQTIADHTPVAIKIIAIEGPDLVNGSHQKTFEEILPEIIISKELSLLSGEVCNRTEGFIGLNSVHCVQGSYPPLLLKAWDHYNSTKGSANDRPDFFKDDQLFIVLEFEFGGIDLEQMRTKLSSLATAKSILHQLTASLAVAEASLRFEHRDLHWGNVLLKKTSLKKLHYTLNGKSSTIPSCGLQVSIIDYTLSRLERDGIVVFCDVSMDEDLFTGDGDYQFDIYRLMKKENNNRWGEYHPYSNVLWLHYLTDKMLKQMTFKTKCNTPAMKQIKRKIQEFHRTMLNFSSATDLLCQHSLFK
- experimentDescription: DSF 100 kinase selectivity screen;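 also: compound tested at 20 µM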
- Assay type: binding
- experimentalSetup: protein GSG2; average of three replicates
- Description: Recombinant protein kinase domains with a concentration of 2 μM were mixed with a 20 μM compound solution in dimethyl sulfoxide (DMSO), 20 mM Hepes (pH 7.5), and 500 mM NaCl. SYPRO Orange (5000×, Invitrogen) was added as a fluorescence probe (1μl/ml). Subsequently, temperature-dependent protein unfolding profiles were measured using the QuantStudio 5 realtime PCR machine (Thermo Fisher Scientific, Waltham, MA, USA). […] The temperature was raised with a step rate of 3°C/min. […]
testReadout: dTm (K)

- molecule: "COc1cc(C(=O)N2CCOCC2)c(F)cc1Nc1nc(N(C)C)c2c(Cl)c[nH]c2n1 [Compound 36]"
  measuredTarget: "~100 representative kinases (Homo sapiens)"
  assayValue: -1.75
- molecule: "O=C(Nc1cccc(-c2c[nH]c3ncnc(N4CCOCC4)c23)c1)C1(C(=O)Nc2cccc3c2CCC3)CC1 [Compound 11]"
  measuredTarget: "~100 representative kinases (Homo sapiens)"
  assayValue: -2.96
- molecule: "O=C(Nc1cccc(-c2c[nH]c3ncnc(N4CCOCC4)c23)c1)C1(C(=O)Nc2ccc(F)c(Br)c2F)CC1 [Compound 26]"
  measuredTarget: "~100 representative kinases (Homo sapiens)"
  assayValue: -2.00
